- Test system: P388 leukemia ip, CD2F1 mice, survival T/C
- protocol details: NCI In Vivo Anticancer Drug Screen. Data for tumor model P388 Leukemia (intraperitoneal) in CD2F1 (CDF1) mice
- measurement parameters: endpoint: median survival time; dose: 100.0 mg/kg/injection; schedule: Q01DX001 (ip); vehicle: Klucel (hydroxypropylcellulose) (HPC); higher = longer survival
Toxic doses and inconclusive results are not listed.
measure name: T/C

Use the examples below as a reference point.
INSERT INTO assay_data (compound, measure_name, assay_result) VALUES
  ('O=C(O)C1(Cc2ccc(O)c(O)c2)NCCS1 (stereo not given)', 'T/C', '104 % of control'),
  ('CN(C)C(=Nc1ccccc1)OC1=C/C(=C2/C=C(OC(=Nc3ccccc3)N(C)C)N=C2OC(=Nc2ccccc2)N(C)C)C(OC(=Nc2ccccc2)N(C)C)=N1', 'T/C', '106 % of control'),
  ('CC(Br)C(C)(C)OO (stereo not given)', 'T/C', '101 % of control'),
  ('O=C1Cc2ccccc2C2CC12 (stereo not given)', 'T/C', '98 % of control');

Next compound, please.
Need T/C of "CCc1nc(-c2ccccc2)nc2c1nc(Cc1ccccc1)n2Nc1ccccc1" , thanks.
88 % of control

###

- Test system: P388 leukemia ip, CD2F1 mice, survival T/C
- protocol details: NCI In Vivo Anticancer Drug Screen. Data for tumor model P388 Leukemia (intraperitoneal) in CD2F1 (CDF1) mice
- measurement parameters: endpoint: median survival time; dose: 200.0 mg/kg/injection; schedule: Q01DX005 (ip); vehicle: saline with Tween-80; higher = longer survival
Toxic doses and inconclusive results are not listed.
measure name: T/C

INSERT INTO measurements (compound, assay_result) VALUES
  ('COc1ccccc1C(C)c1cc2c(cc1OC)OCO2 (stereo not drawn)', '93 % of control'),
  ('CNC(=O)c1ccccc1C1(O)c2ccccc2CCc2ccccc21', '90 % of control');

Now turn to the next compound.
Which T/C value belongs to CC1=NNC(=O)C1N=Nc1c(C)n(C)n(-c2ccccc2)c1=O (stereo not drawn) ?
100 % of control

###

- System: P388 leukemia ip, CD2F1 mice, survival T/C
- protocol details: NCI In Vivo Anticancer Drug Screen. Data for tumor model P388 Leukemia (intraperitoneal) in CD2F1 (CDF1) mice
- measurement parameters: endpoint: median survival time; dose: 50.0 mg/kg/injection; schedule: Q01DX005 (ip); vehicle: Klucel (hydroxypropylcellulose) (HPC); higher = longer survival
Toxic doses and inconclusive results are not listed.
measure name: T/C

Given the entry O=C1C2CCCN2C(=S)N1c1ccc([N+](=O)[O-])cc1 (stereo not drawn) , report its measured T/C.
100 % of control

Recorded T/C of "CN(C)c1ccc(/[N+]([O-])=N/N2C(=O)c3ccccc3C2=O)cc1" , please.
97 % of control

# T/C lookup, item "Brc1ccccc1CN=Cc1ccc2c(c1)OCO2"
101 % of control

If you can, please state the reported T/C value of "C(NC=C1c2ccccc2-c2ccccc21)=C1c2ccccc2-c2ccccc21" .
100 % of control

Can you share its T/C? I mean this compound: "c1cc[c]([Ge]([O][Ge]([c]2ccccc2)[c]2ccccc2)[c]2ccccc2)cc1.c1cc[c]([Ge]([O][Ge]([c]2ccccc2)[c]2ccccc2)[c]2ccccc2)cc1"
89 % of control

// returns reported T/C for input OC(CCl)Cn1nc2ccc3ccccc3c2n1 (stereo not drawn)
102 % of control

Find the recorded T/C belonging to N#CC(C(=O)O)c1ccc([N+](=O)[O-])cc1 (stereo not drawn) and report it.
105 % of control

Query (compound): CCN(CC)P1(=O)OC(c2ccccc2)=CCN1c1ccc(OC)cc1 (stereo not drawn) ; field requested: T/C
102 % of control

T/C lookup needed for CC(=O)OCC1OC(OC2C(COC(C)=O)OC(Sc3ccccc3)C(OC(C)=O)C2OC(C)=O)C(OC(C)=O)C(OC(C)=O)C1OC(C)=O (stereo not drawn) , thanks.
100 % of control

For the compound "COc1ccc2ncc(COC(=O)NCCCl)c(COC(=O)NCCCl)c2c1" , what T/C is on record?
86 % of control

Please report the recorded T/C for "Cn1c2c(c(=O)c3ccccc31)CCC(C)(C)O2" .
100 % of control

Consider the compound shown here: "C[C@]12CC[C@H]3[C@@H](C[C@H]4OC[C@@]35CC[C@H](O)C[C@]45Br)[C@@H]1CC[C@@H]2O" What is its recorded T/C?
97 % of control

Give its T/C value. Item: "C[Si]1(C)CC[Si](C)(C)OS(=O)(=O)CS(=O)(=O)O1"
100 % of control

Which measured T/C value corresponds to "COC(=O)C1=C/N(C)CCC/C(C(N)=O)=C\1" ?
89 % of control

Would you mind telling me what T/C value was observed for "O[C@@]12CO[C@@H](c3ccc4c(c3)OCO4)[C@@H]1CO[C@H]2c1ccc2c(c1)OCO2" ?
90 % of control

Recorded T/C for "COc1cc(C2=[N+](C)CCc3cc4c(cc32)OCO4)cc(OC)c1OC" , please?
99 % of control

I'd like to know its T/C. The compound in question is "O=c1oc2c(ccc3nc(-c4ccccc4)sc32)c(N2CCOCC2)c1Cl"
92 % of control

Endpoint output: T/C of CCOC(=O)C1=C(C)NC(=O)NC1c1ccc(N(C)C)cc1 (stereo not drawn) . Value?
90 % of control
